system: H460 cells; experiment: Cell growth inhibition bioassay (sulforhodamine B); type: cell-based, human; conditions: Homo sapiens, NCI-H460; 48 h, SRB; read-out: GI50 in indicated cell line: H460
Exercise: state measured GI50 for each of the molecules provided.
State just the number; it will be interpreted in µM.

// lookup GI50 for O=c1[nH]cc(F)c(=O)[nH]1 [Compound 5FU, 5-Fluorouracil, reference compound]
4.1

// lookup GI50 for `COc1ccc(/C=C/C(=O)c2c(O)cc(O)cc2OC)cc1`
14

// lookup GI50 for `COc1ccc(CCC(=O)c2c(O)cc(O)cc2OC)cc1`
128

// lookup GI50 for `COc1ccc(/C=C/C(=O)c2c(O)cc(OC)cc2OC)cc1`
24.1

// lookup GI50 for `COc1cc(O)c(C(=O)CCc2ccc3c(c2)OCO3)c(OC)c1`
105

// lookup GI50 for `C=CCOc1cc(OC)c(C(=O)/C=C/c2ccc3c(c2)OCO3)c(OCC=C)c1`
14.5
